Value source: ChEMBL document CHEMBL1201862

Test system: LOX IMVI
measurement-description: NCI tumour cell line growth inhibition, 48 h
Calls of active or inactive are those of the source. Rule as the data show it: active = GI50 up to about 1.1 µM and inactive = higher.
Labels: active, inactive

compound=O=C(CC(=O)c1cccc2ccccc12)C(=O)Nc1ccc(Cl)cc1 discrete_label=inactive
compound=Cc1ccc(/C=C/C(=O)c2sc(-n3nc(-c4ccccc4)cc3-c3ccccc3)nc2C)cc1 discrete_label=inactive
compound="COc1ccc2c(c1)CC1Cc3cc(OC)c(OC)cc3CN1CC2 (stereo unspecified)" discrete_label=inactive
compound=CC[P+](C)(C)c1ccccc1 discrete_label=inactive
compound=Nc1ccc(S(=O)(=O)Nc2nc3ccccc3nc2Nc2ccc(S(N)(=O)=O)cc2)cc1 discrete_label=inactive
compound="CCOC(=O)c1ccc(C(=O)C(C(C)=O)C(=O)OC(C)(C)C)[nH]1 (stereo unspecified)" discrete_label=inactive
compound="CCOC(=O)C1C(=O)CN2CCc3c([nH]c4ccccc34)C12C(=O)OCC (stereo unspecified)" discrete_label=inactive
compound="Cc1ccc([N+](=O)[O-])cc1S(=O)(=O)Nc1ccc(C2=NN(c3ccc([N+](=O)[O-])cc3[N+](=O)[O-])C(c3ccccc3)C2)cc1 (stereo unspecified)" discrete_label=inactive
compound="Cc1cccc(C)c1NC(=O)C(=O)C1C(=O)N(c2ccccc2)N=C1N (stereo unspecified)" discrete_label=inactive
compound=C/N=C(\Nc1cccc(C(F)(F)F)c1)SCc1ccc(N=C=S)cc1 discrete_label=inactive
compound=Cc1ccc(Nc2nnc(-c3ccc4c(c3)OCO4)o2)c(C)c1 discrete_label=inactive
compound=C[C@]12CC[C@H](O[C@@H]3O[C@H](CO[C@@H]4O[C@H](CO)[C@@H](O)[C@H](O)[C@H]4O)[C@@H](O)[C@H](O)[C@H]3O)C[C@@H]1CC[C@@H]1[C@@H]2CC[C@]2(C)[C@@H](C3=CC(=O)OC3)CC[C@]12O discrete_label=inactive
compound=C/C(=C/c1c(C)[nH]c(=O)[nH]c1=O)C(=O)O discrete_label=inactive
compound=Nc1nc(N)nc(CCCc2nc(N)nc(N)n2)n1 discrete_label=inactive
compound=O=C1c2ccccc2C(=O)c2cc(/N=N/c3c(O)ccc4ccccc34)ccc21 discrete_label=inactive
compound="CC(C)N(C(=O)C12C3C4C5C3C1(C#N)C5C42)C(C)C (stereo unspecified)" discrete_label=inactive
compound=COc1cc2cnc3c4cc(OCc5ccccc5)ccc4ccc3c2cc1OC discrete_label=inactive
compound=COc1ccc(NC(=O)C(=O)NO)c(OC)c1 discrete_label=inactive
compound=CONC(C)=O discrete_label=inactive
compound=CC1(C)OCC[C@@H]1[Si](C)(C)C discrete_label=inactive
compound=Cc1ccc2c(O)cc(-c3ccccc3)nc2n1 discrete_label=active
compound=CN(/N=C/c1cccc2cccnc12)c1ccc([N+](=O)[O-])cc1[N+](=O)[O-] discrete_label=inactive
compound=CC1=CC(=O)NCCN1C discrete_label=inactive
compound=CCOc1ccccc1NC(=O)C(=O)CC(=O)C1=C(C)Nc2ccccc2S1 discrete_label=inactive
compound="CC(=O)Oc1ccc2c(c1)CC[C@@H]1C2[C@@H](O[N+](=O)[O-])C[C@@]2(C)C1CC[C@@H]2O (stereo partly specified)" discrete_label=inactive
compound=CCOC(=O)/C=C(\C(=O)OCC)n1cc(C)c(=O)n(Cc2cnnn2CCCCOC(C)=O)c1=O discrete_label=inactive
compound="COC1CC(=O)C2C(=O)N(c3ccccc3)C(=O)C23C(C(=O)c2ccccc2)=C(C)NC13O (stereo unspecified)" discrete_label=inactive
compound="COC1=C(C(c2cc(OC)c(OC)c(OC)c2)c2cc3c(cc2OC)OCO3)C(=O)OC1 (stereo unspecified)" discrete_label=inactive
compound=O=C(O)C(Cc1ccccc1)Cc1ccccc1 discrete_label=inactive
compound=O=C(O/N=C1/CCC/C1=C\c1ccccc1)c1ccccc1 discrete_label=inactive
compound=O=C1/C(=C/c2ccco2)NC(=S)N1CN1CCOCC1 discrete_label=inactive
compound="Cc1ccc2c(c1)CC1(C2)Cc2ccc(C)cc2C1=O (stereo unspecified)" discrete_label=inactive
compound=c1ccc(-c2ccc(-c3cc4ccccc4[nH]3)cc2)cc1 discrete_label=inactive
compound=CNNC(=NS(=O)(=O)c1cc(C#N)c(NNC)cc1S)NNC discrete_label=inactive
compound="O=C1/C(=C/c2cccs2)N=C(c2ccccc2)N1C1Nc2cc3c(cc2S1)NC(N1C(=O)/C(=C/c2cccs2)N=C1c1ccccc1)S3 (stereo unspecified)" discrete_label=inactive
compound="CCCCCCCCCCCCCCCC(=O)N(CCCCCCCCCCC(=O)O)CC(O)C(O)C(OC1OC(CO)C(O)C(O)C1O)C(O)CO (stereo unspecified)" discrete_label=inactive
compound=CC(=O)[O-].[Zn+].c1ccc(/C(=N\Nc2ccccn2)c2ccccn2)cc1 discrete_label=active
compound=CCN(CC)CCO/N=C1\CC[C@H]2[C@@H]3CC=C4C[C@@H](O)CC[C@]4(C)[C@H]3CC[C@]12C discrete_label=inactive
compound="CN(C)CC(/C(Cc1ccccc1)=N\\NC(=O)C[n+]1ccccc1)c1ccccc1 (stereo unspecified)" discrete_label=inactive
compound="COC(=O)C1CCC(=O)N1C(c1ccc2c(c1)OCO2)c1cc(OC)c(OC)c(OC)c1 (stereo unspecified)" discrete_label=inactive
compound="CC1C(c2ccc(Cl)cc2)c2cc3c(cc2OC1N1CCOCC1)OCO3 (stereo unspecified)" discrete_label=inactive
